# assay.protocol: NCI Yeast Anticancer Drug Screen. Data for the sgs1 mgt1 strain (AID 161);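 further: 0% = growth of cultures given vehicle only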
# run.parameters: S. cerevisiae sgs1 mgt1 strain, at 50.0 µM, stronger effect = higher value
The panel holds about 79,000 compounds, 15% with a hit somewhere; the sample as a whole holds those more often.
Hi there, I'd appreciate the recorded growth inhibition for every entry that follows.
Numbers only, in %.

Take a look at these entries with their results.
>  <compound>
CCC(=O)C(CCN1CCC2(CCCc3ccccc32)CC1)(c1ccccc1)c1ccccc1

>  <value>
97.8

$$$$
>  <compound>
Oc1c(Cl)c(Cl)c(Cl)c(Cl)c1Cl.[Cu+2]

>  <value>
81

$$$$
>  <compound>
C1CC[N-]CC1.C1CC[N-]CC1.N#CO.[Ag]

>  <value>
99.4

$$$$
>  <compound>
CN(C)c1ccc(N=Cc2c([O-])ccc3ccccc23)cc1.[C-]#[O+].[C-]#[O+].[Ir]

>  <value>
78.3

$$$$
>  <compound>
C[n+]1ccccc1-c1nc(-c2cccc[n+]2C)nc(-c2cccc[n+]2C)n1

>  <value>
79.6

$$$$

Look at each compound and report its growth inhibition.
1. CCC(C)c1cc([N+](=O)[O-])cc([N+](=O)[O-])c1O (stereo not given)
2. COc1ccc2c(c1O)-c1cccc3c1[C@@H](C2)N(CCCl)CC3

Reply:
[86, 57.6]

Look at each compound and report its growth inhibition.
1. CCOP(=S)(OCC)SC(O)(C(F)F)C(F)F
2. O=c1oc2ccccc2c(O)c1C(C/C(CCN1CCCC1)=N\Nc1ccccc1)c1ccccc1 (stereo not given)
3. Cc1cccc(NC(=O)CBr)c1
4. CC1=C[C@H]2O[C@@H]3C[C@H]4OC(=O)/C=C\C=C\C(C(C)O)OCC(O)C(C)CC(=O)OC[C@@]2(C[C@@H]1O)[C@]4(C)[C@@]31CO1 (stereo not given in full)
5. [Cl][Hg][Cl].c1ccc(CSc2ccccc2)cc1

Reply:
[42, 87.8, 99.2, 92.2, 99.3]

Look at each compound and report its growth inhibition.
1. CC(C)NCC(O)c1ccccc1Cl (stereo not given)
2. c1cc2c(cc1C1OC[C@H]3[C@@H](c4ccc5c(c4)OCO5)OC[C@@H]13)OCO2 (stereo not given in full)
3. CC1=CC2OC3CC4OC(=O)/C=C/C=C/C(C(C)O)OCC(O)C(C)CC(=O)OCC2(CC1O)C4(C)C31CO1 (stereo not given)

Reply:
[-3.35, 60, 92.2]

====

# assay.protocol: NCI Yeast Anticancer Drug Screen. Data for the mec2-1 strain (AID 157)
# run.parameters: S. cerevisiae mec2-1 strain, at 50.0 µM
This is part of a sample that, as a whole, favours compounds with a hit. Of some 79,000 tested, about 15% had one in any assay. Calls of active or inactive are those of the source. No stated cut-off is given here; in the data, active means growth inhibition above about 70%; inactive means the rest.
Entry note: the call must match one of 1 (active), 0 (inactive)

Examples from the recorded data:
>  <molecule>
CCC(=O)OC1CCn2c1nc1c2C(=O)C(C)=C(N2CC2)C1=O (configuration not stated)

>  <category.label>
1

$$$$
>  <molecule>
Cc1cccc(OCC(O)CN2CC2)c1 (configuration not stated)

>  <category.label>
1

$$$$
>  <molecule>
Nc1ccccc1C(=O)OCCc1ccccc1

>  <category.label>
0

$$$$
>  <molecule>
CCC(C)(C)c1ccc(OP(=S)(S)Oc2ccc(C(C)(C)CC)cc2)cc1

>  <category.label>
0

$$$$

Query: Field: outcome | Entry: CC(C)C1(NC(=O)C2C=C3c4cccc5[nH]cc(c45)CC3N(C)C2)OC2(O)C3CCCN3C(=O)C(Cc3ccccc3)N2C1=O (configuration not stated)
Reply: 1

Query: Field: outcome | Entry: COC(=O)C1=C(C)NC(=S)NC1c1ccc(N(CCCl)CCCl)cc1Cl (configuration not stated)
Reply: 1

Query: Field: outcome | Entry: CSc1ccccc1[As](C)C
Reply: 1

====

Hi there, I'd appreciate the recorded growth inhibition for every entry that follows.
# assay.protocol: NCI Yeast Anticancer Drug Screen. Data for the rad50 strain (AID 155);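 further: 0% = growth of vehicle-only cultures of the same strain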
# run.parameters: S. cerevisiae rad50 strain growth inhibition; at 50.0 µM (retest, dose inferred, filed as 5.0); stronger effect = higher value
# Description: Growth inhibition of yeast strains with defined genetic alterations is measured as a screen for potential anti-cancer activity. Selected strains with alterations in DNA damage repair or cell cycle control were exposed to compounds and growth inhibition was measured relative to vehicle treated controls. The strain used in this assay is rad50
About 79,000 compounds went through this panel and 15% of them were active in at least one assay; those are over-represented in the sample as a whole.
One number for each entry, in %.

>  <molecule>
CCC[CH2][Sn]1([CH2]CCC)[O]C(=O)C(C(C)C)N=Cc2ccccc2[O]1 (stereo not given)

>  <growth inhibition, %>
15

$$$$
>  <molecule>
Cc1ccc([PH+](c2ccc(C)cc2)c2ccc(C)cc2)cc1.Cc1ccc([PH+](c2ccc(C)cc2)c2ccc(C)cc2)cc1.[Cl][Hg][Cl]

>  <growth inhibition, %>
95

$$$$
>  <molecule>
CCCCCCCCCCCCCC(=O)O

>  <growth inhibition, %>
18

$$$$
>  <molecule>
N#CC(C#N)=Cc1cccc([N+](=O)[O-])c1

>  <growth inhibition, %>
89

$$$$

Short answer for CC1CN=C(Nc2ccccc2)S1 (stereo not given) : growth inhibition was 100

====

# assay.protocol: NCI Yeast Anticancer Drug Screen. Data for the bub3 strain (AID 167)
# run.parameters: S. cerevisiae bub3 mutant strain, at 5.0 µM (retest, dose inferred, filed as 0.5), stronger effect = higher value
This is part of a sample that, as a whole, favours compounds with a hit. Of some 79,000 tested, about 15% had one in any assay.
experimental.readout: growth inhibition (%)
Answers are plain numbers, in %.

Take a look at these entries with their results.
>  <compound>
COc1cc(C[C@H]2c3cc(OC)c(OC)c(O)c3CCN2C)c(Oc2cc3c(cc2OC)-c2c(OC)c(OC)c(OC)c4c2C(C3)N(C)CC4)cc1OC (stereo not given in full) (tested in a mixture with another compound)

>  <unit.tag>
%

>  <growth inhibition>
3

$$$$
>  <compound>
[CH3][Sn]([Br])([Br])[CH2]CCCBr

>  <unit.tag>
%

>  <growth inhibition>
13

$$$$
>  <compound>
CC[CH2][Sn]([CH2]CC)([CH2]CC)[CH2]CCBr

>  <unit.tag>
%

>  <growth inhibition>
99

$$$$
>  <compound>
CCOC(=S)S

>  <unit.tag>
%

>  <growth inhibition>
29

$$$$
>  <compound>
S=C=Nc1cccc(Cl)c1

>  <unit.tag>
%

>  <growth inhibition>
7

$$$$

Look at each compound and report its growth inhibition.
1. C[C@]12CCC(=O)C=C1CC[C@@H]1C2CC[C@@]2(C)C1CC[C@@H]2OC(=O)C12OC1CCC2=O (stereo not given in full)
2. O=[N+]([O-])c1ccc(SC2CCCCCCC2Cl)c([N+](=O)[O-])c1 (stereo not given)
3. CC[n+]1c(/C=C/c2ccc(N(CCCl)CCCl)cc2)ccc2cc(I)ccc21
4. O=[N+]([O-])c1ccc(N2CCC(CCCC3CCN(c4ccc([N+](=O)[O-])cc4[N+](=O)[O-])CC3)CC2)c([N+](=O)[O-])c1
5. O=C(O)C1(c2ccccc2)OC1c1ccccc1 (stereo not given)
6. NC1=NCC(c2ccc(Cl)cc2)O1 (stereo not given)

Reply:
1: 27; 2: 15; 3: 99; 4: 6; 5: -6; 6: -76

====

Hi there, I'd appreciate the recorded growth inhibition for every entry that follows.
# assay.protocol: NCI Yeast Anticancer Drug Screen. Data for the sgs1 mgt1 strain (AID 161);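 further: 0% = growth of cultures given vehicle only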
# run.parameters: S. cerevisiae sgs1 mgt1 strain, at 50.0 µM, stronger effect = higher value
The panel holds about 79,000 compounds, 15% with a hit somewhere; the sample as a whole holds those more often. Active and inactive are the calls of the source. Cut-off read from the data, not from the text of the source: active = growth inhibition above about 70%; inactive = the rest.

Take a look at these entries with their results.
>  <smiles.structure>
CCc1cc2c(cc1-c1csc(C/C(N)=N/O)n1)C(C)(C)CCC2(C)C

>  <value>
91.4% (active)

$$$$
>  <smiles.structure>
O=[N+]([O-])[O-].O=[N+]([O-])[O-].[Au].[Au].c1ccc([P-]c2ccccc2)cc1.c1ccc([P-]c2ccccc2)cc1

>  <value>
91.3% (active)

$$$$

Short answer for C/C(=N\N=C(/[Se])N1CC2CCC(CC2)C1)c1ccccn1 : growth inhibition was 89.5% (active)

====

# assay.protocol: NCI Yeast Anticancer Drug Screen. Data for the rad50 strain (AID 155);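 further: 0% = growth of vehicle-only cultures of the same strain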
# run.parameters: S. cerevisiae rad50 strain growth inhibition; at 5.0 µM (retest, dose inferred, filed as 0.5)
# Protocol: Growth inhibition of yeast strains with defined genetic alterations is measured as a screen for potential anti-cancer activity. Selected strains with alterations in DNA damage repair or cell cycle control were exposed to compounds and growth inhibition was measured relative to vehicle treated controls. The strain used in this assay is rad50
This is part of a sample that, as a whole, favours compounds with a hit. Of some 79,000 tested, about 15% had one in any assay. Activity calls are given as the source filed them. Cut-off read from the data, not from the text of the source: active = growth inhibition above about 70%; inactive = the rest.
Entry note: the call must match one of active, inactive

Query: Field: outcome | Entry: C=CO/C(C)=C(\[Se]c1ccccc1)C(C)=O
Reply: inactive

Query: Field: outcome | Entry: COC(=O)C(C)(C)[n+]1c(C)cc(C)cc1C
Reply: inactive

Query: Field: outcome | Entry: Cc1ccc(S(=O)(=O)OC2CCC3C4CC=C5CC(SC(=N)N)CCC5(C)C4CCC23C)cc1 (stereo not given)
Reply: inactive

Query: Field: outcome | Entry: N#Cc1ccccc1C(Cl)(Cl)Cl
Reply: inactive

Query: Field: outcome | Entry: CC(=O)C(CN(C(C)C)C(C)C)C(c1ccccc1)c1c(O)c2ccccc2oc1=O (stereo not given)
Reply: inactive

Query: Field: outcome | Entry: CCCCCNC(=O)c1c(O)[nH]c(=S)[nH]c1=O
Reply: inactive

Query: Field: outcome | Entry: C[C@H]1C/C=C/[C@H]2[C@@H]3O[C@]3(C)[C@@H](C)[C@H]3[C@H](Cc4ccccc4)NC(=O)[C@]32OC(=O)O/C=C/[C@@](C)(O)C1=O
Reply: inactive

Query: Field: outcome | Entry: C[C@]12CC[C@H](OC(=O)COc3ccc(N(CCCl)CCCl)cc3)C[C@@H]1CC[C@@H]1[C@@H]2CC[C@]2(C)NC(=O)CC[C@@H]12
Reply: inactive

Query: Field: outcome | Entry: CCOC(=O)c1ccccc1N
Reply: inactive

Query: Field: outcome | Entry: COc1ccc(Br)cc1/C=C/[N+](=O)[O-]
Reply: active
